// MIC lookup, one value per entry
- Test system: Isogenic E. coli J58 strain carrying TEM-26
- test-name: MIC determination, isogenic E. coli strains
- Type: cell-based
- study-conditions: Escherichia coli, 18 h, read-out: Mimimum Inhibitory Concentrations, TEM-26
Express it in µg/mL; write the number only.

{"columns": ["compound", "MIC (µg/mL)"],
 "data": [
  ["Cn1c[n+](Cc2ccc(C=CC3=C(C(=O)O)N4C(=O)[C@@H](NC(=O)/C(=N\\OC(C)(C)C(=O)O)c5csc(N)n5)[C@H]4SC3)cc2)c2cc(O)c(O)cc21 (mixture of isomers)", 1],
  ["CC[N+]1(Cc2ccc(C=CC3=C(C(=O)O)N4C(=O)[C@@H](NC(=O)/C(=N\\OC(C)(C)C(=O)O)c5csc(N)n5)[C@H]4SC3)cc2)CCc2cc(O)c(O)cc2C1 (mixture of isomers)", 2],
  ["CC(C)(O/N=C(\\C(=O)N[C@@H]1C(=O)N2C(C(=O)O)=C(C=Cc3ccc(C[N+](C)(C)Cc4ccc(O)c(O)c4)cc3)CS[C@H]12)c1csc(N)n1)C(=O)O (mixture of isomers)", 8],
  ["CC(C)(O/N=C(\\C(=O)N[C@@H]1C(=O)N2C(C(=O)O)=C(C=Cc3ccc(C[N+]4(C)CCc5cc(O)c(O)cc5C4)cc3)CS[C@H]12)c1csc(N)n1)C(=O)O (mixture of isomers)", 1],
  ["CC(C)(O/N=C(\\C(=O)N[C@@H]1C(=O)N2C(C(=O)O)=C(C=Cc3ccc(C[N+]4(C)CCc5cc(O)c(O)cc5C4)cc3[N+](=O)[O-])CS[C@H]12)c1csc(N)n1)C(=O)O (mixture of isomers)", 1],
  ["CC(C)(O/N=C(\\C(=O)N[C@@H]1C(=O)N2C(C(=O)O)=C(C=Cc3ccc(C[N+]4(C)Cc5cc(O)c(O)cc5C4)cc3)CS[C@H]12)c1csc(N)n1)C(=O)O (mixture of isomers)", 4],
  ["COc1cc[n+](Cc2ccc(C=CC3=C(C(=O)O)N4C(=O)[C@@H](NC(=O)/C(=N\\OC(C)(C)C(=O)O)c5csc(N)n5)[C@H]4SC3)cc2)cc1OC (mixture of isomers)", 4],
  ["CC(C)(O/N=C(\\C(=O)N[C@@H]1C(=O)N2C(C(=O)O)=C(C=Cc3ccc(C[n+]4ccc(NC(=O)c5ccc(O)c(O)c5)cc4)cc3)CS[C@H]12)c1csc(N)n1)C(=O)O (mixture of isomers)", 2]
]}

Here's the next entry for you.
Annotate the compound Cn1c[n+](Cc2ccc(C=CC3=C(C(=O)O)N4C(=O)[C@@H](NC(=O)/C(=N\OC(C)(C)C(=O)O)c5csc(N)n5)[C@H]4SC3)cc2)cc1C(=O)Nc1ccc(O)c(O)c1 (mixture of isomers) with its measured MIC.
8

----------
- System: Isogenic E. coli J58 strain carrying TEM-26
- test-name: MIC determination, isogenic E. coli strains
- Assay type: cell-based
- study-conditions: Escherichia coli, 18 h, read-out: Mimimum Inhibitory Concentrations, TEM-26
Entries annotated with measured MIC
// units = µg/mL; emit number, no label

Some entries whose results are on file:
{"columns": ["compound", "unit-symbol", "MIC"],
 "data": [
  ["CC(C)(O/N=C(\\C(=O)N[C@@H]1C(=O)N2C(C(=O)O)=C(/C=C/c3ccc(C[n+]4ccn(-c5ccc(O)c(O)c5)c4)cc3)CS[C@H]12)c1csc(N)n1)C(=O)O", "µg/mL", 1],
  ["Cc1c[n+](Cc2ccc(C=CC3=C(C(=O)O)N4C(=O)[C@@H](NC(=O)/C(=N\\OC(C)(C)C(=O)O)c5csc(N)n5)[C@H]4SC3)cc2)ccc1-c1ccc(O)c(O)c1 (mixture of isomers)", "µg/mL", 4]
]}

For the compound CC(C)(O/N=C(\C(=O)N[C@@H]1C(=O)N2C(C(=O)O)=C(C=Cc3ccc(C[N+]4(C)CCc5c(ccc(O)c5O)C4)cc3)CS[C@H]12)c1csc(N)n1)C(=O)O (mixture of isomers) , give its measured MIC value.
1
